Molecular target: HRgpA-6H (Porphyromonas gingivalis) (UniProt P28784)
Test: ELISA, FASEBA Fab on coated HRgpA-6H
QUANTITY_KIND: OD450nm
Answer with a number only.

Give the measured OD450nm for KB001 mouse Fab VL T100Y (Fab, V domains shown) VH: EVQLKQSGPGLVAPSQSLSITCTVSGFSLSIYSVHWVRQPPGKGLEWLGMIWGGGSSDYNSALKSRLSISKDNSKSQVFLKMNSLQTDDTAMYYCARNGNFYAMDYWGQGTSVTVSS VL: QIVLTQSPAIMSASLGERVTMTCTASSSVSSSFLHWYQQKPGSSPQLWIYSTSNLASGVPARFSGSGSGTSYSLTISSMEAEDAATYYCHQYHHSPYIYYFGGGTKLEIK
0.546

Give the measured OD450nm for KB001 mouse Fab VL S28H (Fab, V domains shown) VH: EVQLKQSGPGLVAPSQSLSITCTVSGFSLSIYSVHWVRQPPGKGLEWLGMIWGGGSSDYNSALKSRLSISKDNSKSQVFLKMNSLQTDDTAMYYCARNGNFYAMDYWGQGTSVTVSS VL: QIVLTQSPAIMSASLGERVTMTCTASSHVSSSFLHWYQQKPGSSPQLWIYSTSNLASGVPARFSGSGSGTSYSLTISSMEAEDAATYYCHQYHHSPYIYTFGGGTKLEIK
0.719

# credit: patent US20230365662A1
